target: T1, human vascular endothelial growth factor receptor-2 Fc chimera (KDR-Fc) (human, UniProt P35968 20-764); assay: radioactive equilibrium binding assay, 1 nM KDR-Fc, % of input bound
T1 construct: range 1-764; also called human VEGFR-2; not shown: human IgG1 Fc
T1 sequence (P35968 20-764 limits assumed, change not shown, form in doubt): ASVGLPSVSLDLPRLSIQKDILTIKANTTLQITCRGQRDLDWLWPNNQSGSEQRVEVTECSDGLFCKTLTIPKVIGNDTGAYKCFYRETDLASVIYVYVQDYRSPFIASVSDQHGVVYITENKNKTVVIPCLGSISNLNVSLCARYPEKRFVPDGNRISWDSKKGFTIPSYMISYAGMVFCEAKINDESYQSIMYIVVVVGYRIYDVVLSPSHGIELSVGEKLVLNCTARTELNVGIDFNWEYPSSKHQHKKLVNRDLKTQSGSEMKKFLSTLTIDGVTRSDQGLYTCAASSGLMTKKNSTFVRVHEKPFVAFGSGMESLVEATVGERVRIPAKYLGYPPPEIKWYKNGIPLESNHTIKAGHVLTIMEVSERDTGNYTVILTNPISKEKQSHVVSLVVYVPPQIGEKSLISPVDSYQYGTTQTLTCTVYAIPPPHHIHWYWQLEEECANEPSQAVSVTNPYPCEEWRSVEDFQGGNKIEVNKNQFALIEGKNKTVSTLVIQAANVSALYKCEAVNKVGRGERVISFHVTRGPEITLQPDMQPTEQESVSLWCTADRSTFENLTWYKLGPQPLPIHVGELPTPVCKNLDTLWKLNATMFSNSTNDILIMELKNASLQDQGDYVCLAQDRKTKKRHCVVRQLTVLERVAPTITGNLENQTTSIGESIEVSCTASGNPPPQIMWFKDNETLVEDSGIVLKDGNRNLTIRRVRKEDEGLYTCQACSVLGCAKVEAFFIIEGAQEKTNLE
Quick rule: Binding to 1 nM KDR, % of at least 30% means Y, below that means N.

Reference set (5 entries):
>  <BINDER>
C7 (designed binder, 10Fn3 clone, Del 1-8) EVVAATPTSLLISWRHPHFPTRYYRITYGETGGNSPVQEFTVPLQPPTATISGLKPGVDYTITGYAVTHERNGRVLMTPISINYRT

>  <CLASS_LABEL>
Y

$$$$
>  <BINDER>
E13 (designed binder, 10Fn3 clone, Del 1-8) EVVAATPTSLLISWRHPHFPTRYYRITYGETGGNSPVQEFTVPLQPPTATISGLKPGVDYTITGYAVTLEQNGRELMTPISINYRT

>  <CLASS_LABEL>
Y

$$$$
>  <BINDER>
B11 (designed binder, 10Fn3 clone, Del 1-8) EVVAATPTSLLISWRHPHFPTRYYRITYGETGGNSPVQEFTVPLQPPTATISGLKPGVDYTITGYAVTVERNGRELKTPISINYRT

>  <CLASS_LABEL>
N

$$$$
>  <BINDER>
B6 (designed binder, 10Fn3 clone, Del 1-8) EVVAATPTSLLISWRHPHFPTRYYRITYGETGGNSPVQEFTVPLQPPTATISGLKPGVDYTITGYAVTLERNGKELMTPISINYRT

>  <CLASS_LABEL>
N

$$$$
>  <BINDER>
E9 (designed binder, 10Fn3 clone, Del 1-8) EVVAATPTSLLISWRHPHFPTRYYRITYGETGGNSPVQEFTVPLQPPTATISGLKPGVDYTITGYAVTEERNGRTLRTPISINYRT

>  <CLASS_LABEL>
N

$$$$

Kindly determine if Binding to 1 nM KDR, % recorded for E16 (designed binder, 10Fn3 clone, Del 1-8) EVVAATPTSLLISWRHPHFPTRYYRITYGETGGNSPVQEFTVPLQPPTATISGLKPGVDYTITGYAVTVEENGRQLMTPISINYRT is above or exactly 30%. Y

Another binder to check: C2 (designed binder, 10Fn3 clone, Del 1-8) EVVAATPTSLLISWRHPHFPTRYYRITYGETGGNSPVQEFTVPLQPPTATISGLKPGVDYTITGYAVTVERNGRELLWPISINYRT Y

Another binder to check: D5 (designed binder, 10Fn3 clone, Del 1-8) EVVAATPTSLLISWRHPHFPTRYYRITYGETGGNSPVQEFTVPLQPPTATISGLKPGVDYTITGYAVTVERNGRTLMMPISINYRT Y
